This collection of values is drawn from patent US10604514B2.

molecular target: GSK3β kinase (Homo sapiens (Human), UniProt P49841); test: GSK3β kinase assay (Ser/Thr 09 peptide Z-lyte, FRET); settings: method text calls the value IC50;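 further: Coumarin/fluorescein emission ratio converted to percent phosphorylation against unphosphorylated (0%) and phosphorylated (100%) controls, 1 h compound incubation at room temperature, 11-point threefold dilutions from 10 µM, run in duplicate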
Sequence (P49841 whole entry): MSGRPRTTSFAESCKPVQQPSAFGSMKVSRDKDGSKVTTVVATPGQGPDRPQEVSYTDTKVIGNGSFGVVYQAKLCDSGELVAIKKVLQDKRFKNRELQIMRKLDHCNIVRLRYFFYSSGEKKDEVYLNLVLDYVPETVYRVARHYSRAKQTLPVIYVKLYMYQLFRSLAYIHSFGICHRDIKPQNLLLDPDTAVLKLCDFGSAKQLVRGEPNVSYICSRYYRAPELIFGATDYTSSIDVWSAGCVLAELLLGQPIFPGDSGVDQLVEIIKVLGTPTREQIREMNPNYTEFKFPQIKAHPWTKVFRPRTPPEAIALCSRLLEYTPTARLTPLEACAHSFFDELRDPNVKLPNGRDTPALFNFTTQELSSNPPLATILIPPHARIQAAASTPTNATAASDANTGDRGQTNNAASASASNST
OUTCOME MEASURE: EC50 (nM)

CCCCN1CCC(C(=O)Nc2cc3cc(-c4cnn(C)c4)ccc3cn2)CC1 [Compound 169] :: 47

a = Cc1ncc(-c2ccc3cnc(NC(=O)N4CCC(N5CCOCC5)CC4)cc3c2)o1 [Compound 50]
b = Cc1ncc(-c2cc(F)c3cnc(NC(=O)[C@H]4CC[C@H](N5CCOCC5)CC4)cc3c2)o1 [Compound 19]
[in] Param metric = EC50; output whichever of a , b has the minimum value. Write the label of whichever entry you select.
[out] a
(a: 218 nM, b: 1160 nM)

A = [2H]/C(C(=O)Nc1cc2cc(-c3cnc(C)n3C)ccc2cn1)=C(/[2H])c1c([2H])c([2H])c([2H])c([2H])c1[2H] [Compound 91]
B = Cc1nnc(-c2ccc3cnc(NC(=O)N4CCN(C(C)C)CC4)cc3c2)s1 [Compound 146]
[in] Param metric = EC50; output whichever of A , B has the minimum value. Write the label of whichever entry you select.
[out] B
